# Lookup of reported Plant response rating, Wheat keyed by entry
- Test system: wheat (Triticum aestivum)
- Test name: Test A postemergence
- Assay type: in vivo
- Condition description: 125 g ai/ha, postemergence; visual rating after approx. 10 d, 0 to 100 scale (0 no effect, 100 complete control)

{"columns": ["Compound", "Tgt", "Plant response rating, Wheat"],
 "data": [
  ["C#Cc1cccc(C2CNC(=O)C2C(=O)Nc2cccc(F)c2F)c1 (racemic) [Compound 677]", "wheat (Triticum aestivum)", 0],
  ["O=C1NCC(c2cc(C(F)(F)F)cc(C(F)(F)F)c2)C1C(=O)Nc1cccc(F)c1F (stereo not drawn) [Compound 588]", "wheat (Triticum aestivum)", 0],
  ["Cc1cc(C2CNC(=O)C2C(=O)Nc2ccccc2F)cs1 (stereo not drawn) [Compound 630]", "wheat (Triticum aestivum)", 0],
  ["O=C1NCC(c2cccc(C(F)(F)F)c2F)C1C(=O)Nc1ccc(F)cc1F (stereo not drawn) [Compound 592]", "wheat (Triticum aestivum)", 30],
  ["CN1CC(c2cccc(OC(F)F)c2)C(C(=O)Nc2ccc(F)cc2F)C1=O (stereo not drawn) [Compound 617]", "wheat (Triticum aestivum)", 50],
  ["O=C1NCC(c2csc(Br)c2)C1C(=O)Nc1ccccc1F (stereo not drawn) [Compound 648]", "wheat (Triticum aestivum)", 0],
  ["CN1CC(c2ccc(Br)cc2)C(C(=O)Nc2cccc(F)c2F)C1=O (stereo not drawn) [Compound 564]", "wheat (Triticum aestivum)", 40],
  ["Cc1ccc(C2CN(C)C(=O)C2C(=O)Nc2ccccc2C(F)(F)F)cc1 (stereo not drawn) [Compound 665]", "wheat (Triticum aestivum)", 30],
  ["Cc1ccc(C2CNC(=O)C2C(=O)Nc2ccc(F)cc2F)cc1C(F)(F)F (racemic) [Compound 655]", "wheat (Triticum aestivum)", 0],
  ["O=C1NCC(c2ccc(OC(F)F)cc2)C1C(=O)Nc1cccc(F)c1F (stereo not drawn) [Compound 561]", "wheat (Triticum aestivum)", 30],
  ["COc1c(F)ccc(NC(=O)C2C(=O)NCC2c2cccc(OC(F)(F)C(F)F)c2)c1F (racemic) [Compound 540]", "wheat (Triticum aestivum)", 0],
  ["Cc1ccc(C2CN(C)C(=O)C2C(=O)Nc2ccccc2S(C)(=O)=O)c(F)c1 (stereo not drawn) [Compound 558]", "wheat (Triticum aestivum)", 0]
]}

* * *

# pest or weed control at 125 g/ha annotations
- System: ryegrass, Italian (Italian ryegrass, Lolium multiflorum)
- Test name: Test A preemergence
- Format: in vivo
- Condition description: Lolium multiflorum, pre-emergence, 240 h, 125 g ai/ha, preemergence; 0 to 100 scale where 0 is no effect and 100 is complete control; read-out: Ryegrass, Italian plant response rating

{"columns": ["Entry smiles", "pest or weed control at 125 g/ha"],
 "data": [
  ["CCOc1ccc([C@H]2CN(C)C(=O)[C@@H]2C(=O)Nc2cccc(F)c2F)cc1", "0%"],
  ["CN1C[C@H](c2cc(F)c(C(F)(F)F)c(F)c2)[C@@H](C(=O)Nc2ccccc2F)C1=O", "30%"],
  ["CN1CC[C@H](c2cccc(Cl)c2)[C@@H](C(=O)Nc2ccccc2S(C)(=O)=O)C1=O", "0%"],
  ["O=C1NC[C@H](c2cc(F)c(C(F)(F)F)c(F)c2)[C@H]1C(=O)Nc1cccc(F)c1F", "20%"],
  ["Cc1c(F)ccc([C@H]2CNC(=O)[C@@H]2C(=O)Nc2ccc(F)c(F)c2F)c1F", "0%"],
  ["CN1C[C@H](c2cccc(C3CC3)c2)[C@@H](C(=O)Nc2cccc(F)c2F)C1=O", "70%"],
  ["CCc1cc([C@H]2CNC(=O)[C@@H]2C(=O)Nc2ccccc2F)cs1", "0%"],
  ["Cc1c(F)ccc([C@H]2CNC(=O)[C@@H]2C(=O)Nc2ccccc2C(F)(F)F)c1F", "30%"],
  ["CN1C[C@H](c2cc(F)c(F)c(F)c2)[C@@H](C(=O)Nc2ccccc2S(C)(=O)=O)C1=O", "20%"]
]}
